System: Escherichia coli TOP10
runDescription: shrunken log2 fold change of peptide-encoding DNA abundance (4.5 h post-induction vs induction); higher = less antimicrobial activity (less host growth inhibition)
conditionLabel: time post-induction: 4.5 h; library: site-saturation at positions 5, 18, 19, 20
shrunken log2 fold change for assorted sequences

residueCodes: RRIRCRPPRLPRPRPRPAENPRP
experimentalValue: 0.000461

residueCodes: RRIRARPPRLPRPRPRPCSGPRP
experimentalValue: 0.0771

residueCodes: RRIRTRPPRLPRPRPRPIHMPRP
experimentalValue: -0.171

residueCodes: RRIRPRPPRLPRPRPRPCFWPRP
experimentalValue: 0.179

residueCodes: RRIRDRPPRLPRPRPRPPLWPRP
experimentalValue: 0.228

// next item, shrunken log2 fold change requested
Sure, the documented shrunken log2 fold change for `RRIRERPPRLPRPRPRPQACPRP` is -0.0746

====

shrunken log2 fold change for assorted sequences
Test system: Escherichia coli TOP10
runDescription: shrunken log2 fold change of peptide-encoding DNA abundance (4.5 h post-induction vs induction); higher = less antimicrobial activity (less host growth inhibition)
conditionLabel: time post-induction: 4.5 h; library: site-saturation at positions 5, 18, 19, 20
Give your answer as a number; write no unit.

residueCodes: RRIRGRPPRLPRPRPRPMMAPRP
experimentalValue: 1.38
--
residueCodes: RRIRTRPPRLPRPRPRPCYCPRP
experimentalValue: -0.76

// next item, shrunken log2 fold change requested
Sure, the documented shrunken log2 fold change for `RRIRGRPPRLPRPRPRPVEAPRP` is 0.997

====

Test system: Escherichia coli TOP10
runDescription: shrunken log2 fold change of peptide-encoding DNA abundance (4.5 h post-induction vs induction); higher = less antimicrobial activity (less host growth inhibition)
conditionLabel: time post-induction: 4.5 h; library: site-saturation at positions 5, 18, 19, 20
In this scheme, each record receives a class according to its shrunken log2 fold change; the ranges are bottom range (below -0.2), center range (-0.2 to below 0.1), top range (0.1 or more)

A selection of reference data follows.
residueCodes: RRIRVRPPRLPRPRPRPFAYPRP
discreteLabel: bottom range

residueCodes: RRIRLRPPRLPRPRPRPQGYPRP
discreteLabel: center range

residueCodes: RRIRARPPRLPRPRPRPTKDPRP
discreteLabel: top range

residueCodes: RRIRARPPRLPRPRPRPMNPPRP
discreteLabel: center range

As a next step, examine the sequence that follows.
Please let me know in which category the item `RRIRSRPPRLPRPRPRPSCEPRP` belongs. center range

====

System: Escherichia coli TOP10;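 note: peptides expressed intracellularly from a pBAD plasmid library in pooled LB shake-flask culture, induced with 0.3% L-arabinose, DNA abundance read by NGS, three biological replicates, DESeq2 with apeglm shrinkage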
runDescription: shrunken log2 fold change of peptide-encoding DNA abundance (4.5 h post-induction vs induction); higher = less antimicrobial activity (less host growth inhibition)
conditionLabel: time post-induction: 4.5 h; library: site-saturation at positions 5, 18, 19, 20
testReadout: shrunken log2 fold change
Give your answer as a number; write no unit.

Reference set, count: 5
residueCodes: RRIRIRPPRLPRPRPRPFVDPRP
shrunken log2 fold change: -0.65
//
residueCodes: RRIRQRPPRLPRPRPRPYKDPRP
shrunken log2 fold change: -0.0988
//
residueCodes: RRIRSRPPRLPRPRPRPQMFPRP
shrunken log2 fold change: -0.0871
//
residueCodes: RRIRSRPPRLPRPRPRPFNSPRP
shrunken log2 fold change: -0.116
//
residueCodes: RRIRPRPPRLPRPRPRPIREPRP
shrunken log2 fold change: 0.31

Sure, the documented shrunken log2 fold change for `RRIRIRPPRLPRPRPRPATEPRP` is 0.421

Sure, the documented shrunken log2 fold change for `RRIRYRPPRLPRPRPRPEWFPRP` is -0.0405

Sure, the documented shrunken log2 fold change for `RRIRGRPPRLPRPRPRPRIEPRP` is 0.249

Sure, the documented shrunken log2 fold change for `RRIRGRPPRLPRPRPRPKMPPRP` is 0.434

Sure, the documented shrunken log2 fold change for `RRIRNRPPRLPRPRPRPPFAPRP` is 0.201

Sure, the documented shrunken log2 fold change for `RRIRYRPPRLPRPRPRPFPDPRP` is -0.164

Sure, the documented shrunken log2 fold change for `RRIRLRPPRLPRPRPRPEIKPRP` is -0.12

Sure, the documented shrunken log2 fold change for `RRIRQRPPRLPRPRPRPMFPPRP` is -0.181

Sure, the documented shrunken log2 fold change for `RRIRMRPPRLPRPRPRPYCCPRP` is -0.348

Sure, the documented shrunken log2 fold change for `RRIRGRPPRLPRPRPRPFSWPRP` is 0.353

Sure, the documented shrunken log2 fold change for `RRIRGRPPRLPRPRPRPAERPRP` is 0.388

Sure, the documented shrunken log2 fold change for `RRIRSRPPRLPRPRPRPQNVPRP` is -0.209

Sure, the documented shrunken log2 fold change for `RRIRYRPPRLPRPRPRPPMEPRP` is 0.0358

Sure, the documented shrunken log2 fold change for `RRIRQRPPRLPRPRPRPPASPRP` is 0.191

Sure, the documented shrunken log2 fold change for `RRIRRRPPRLPRPRPRPYRMPRP` is -0.292
